melting point listing for selected compounds.

compound: O=C(OCc1ccccc1)c1ccc(Br)c(OCc2ccccc2)c1
melting point: 80.5 to 81.5 °C

Recorded melting point of COc1c(C(=O)NC2CN3CCC2CC3)cc(Cl)c2c1CCN2 (stereo not given) , please.
107 to 109 °C

Query `CC(C)c1ccccc1SCc1cn(-c2ccc(S(C)(=O)=O)cc2)c(-c2ccc(Cl)cc2)n1` next
68 to 70 °C

----------
Listed here are compounds together with their documented melting point.

compound: Oc1ccc2c(c1)CCCC(c1ccccc1)=C2c1ccc(OCCCCCSCc2ccc(C(F)(F)F)cc2)cc1
reading: 147 °C

compound: CS(=O)(=O)C(Cl)(Cl)C(=O)c1ccccc1Cl
reading: 81 to 82 °C

compound: CCOc1ccc(-c2ccc3c(c2)C=C(C(=O)OC(C)(C)C)CCN3C)cc1
reading: 140 to 142 °C

compound: CCOC(=O)c1ncn2c1CN=C(c1ccccc1)c1cc(Br)ccc1-2
reading: 210 to 212 °C

compound: CC1CCC2(C(=O)O)CCC3(C)C(=CCC4C5(C)CC(O)C(O)C(C)(C)C5CCC43C)C2C1C (centres undefined)
reading: 242 to 244 °C

compound: O=[N+]([O-])c1ccc(Sc2cccc3cnccc23)cc1NCc1ccccc1
reading: 153 to 154 °C

# input compound: `CC(C)(C)OC(=O)N1CCN(c2ccc3nc(-c4cccs4)cn3n2)CC1` ; wanted: its melting point
165 to 167 °C

Subsequent entry: `CN(C)S(=O)(=O)N1CCN(C(=O)c2ccc(Nc3ccnc4cc(C(F)(F)F)ccc34)cc2)CC1`
223 to 224 °C

Input `CCC1(CC)OC(=O)N(CCC(C)(C)NC[C@H](O)c2ccc(O)c(NS(C)(=O)=O)c2)c2ccccc21`
168 °C

----------
Parameter: melting point. Scope: all listed entries.

Worked cases, melting point given:
molecule: COC(=S)C(C)=CNc1ccc(OC)c(Cl)c1
melting point: 110 to 112 °C
--
molecule: Cc1c(=O)n(Cc2ccc(C(=O)OC(C)(C)C)cc2)c(=O)n2ccsc12
melting point: 163 to 165 °C
--
molecule: CCC1CCCCCc2c1oc(=O)c(C(c1ccccc1)C1CC1)c2O (stereo not given)
melting point: 94 to 98 °C

Which melting point value is on record for O=C1NC(=O)C(CC#Cc2ccc(Cl)cc2)(Sc2ccc(Cl)cc2)S1 (stereo not given) ?
144 to 146 °C

Input `CN1CCN(c2ccc([N+](=O)[O-])c(CS(=O)(=O)c3ccccc3)n2)CC1`
170 to 172 °C

----------
In this section we review reported melting point values for a set of compounds.

Below, 5 compounds whose answers are already recorded.
compound: Nc1nc2cccnc2c2c1ncn2CC1(O)CCOCC1
property name: melting point
reading: 225 to 226 °C
//
compound: Cc1ccc(CCCC(=O)O)cc1C
property name: melting point
reading: 50 to 51 °C
//
compound: Cc1ccc(NC(=O)C(=O)N2CCC(Cc3ccccc3)CC2)cc1
property name: melting point
reading: 115 to 117 °C
//
compound: CC(=O)Nc1c(O)cc(C(=O)O)cc1[N+](=O)[O-]
property name: melting point
reading: 215 to 220 °C
//
compound: O[C@@H]1[C@H](O)[C@H](O)CO[C@H]1n1c(Br)nc2ccc(Cl)cc21
property name: melting point
reading: 100 °C

Now look at this one.
Can you share its melting point? I mean this compound: CC1SC(c2cccnc2)N(C2CCCCC2)C1=O (stereo unspecified)
120 to 125 °C
